Run Description: Blood biochemical analysis and HE staining of tissues in HCT116 tumor-bearing nude mice
Type: in vivo
Condition: tail vein once every two days, 12 times, blood 48 hours after the last treatment
Readout Kind: Sodium ion (mmol/L)

Compound: CC(C)(C)SSc1nc(N)nc2c1ncn2C1C[C@H](O)[C@@H](CO)O1 (stereo partly drawn)
Numeric Result: 159.0

Compound: CCC(C)SSc1nc(N)nc2c1ncn2C1C[C@H](O)[C@@H](CO)O1 (stereo partly drawn) [Compound A, 6-(sec-butyldithio)-2′-deoxyguanosine]
Numeric Result: 155.6

Compound: Nc1nc(SSCc2ccc(F)cc2)c2ncn(C3C[C@H](O)[C@@H](CO)O3)c2n1 (stereo partly drawn)
Numeric Result: 158.0
